Test system: UACC-257
run.description: NCI tumour cell line growth inhibition, 48 h
Activity calls are given as the source filed them. No stated cut-off is given here; in the data, active = GI50 up to about 1.1 µM and inactive = higher.
Lab note: assign the record to one of active, inactive

*Q* GET /call?item= O=S(O)CCCCCSSc1ccc(Cl)cc1 returns the recorded outcome of this test.
*A* inactive

*Q* For Cc1ccc(C2=Nc3c(c(C)nn3-c3ccccc3)N=C(C(=O)O)C2)cc1 , which call appears in the assay record?
*A* inactive

*Q* # fetch the recorded call for O=C(NCCCNC(=O)c1ccc2c(O)c(O)ccc2c1)c1ccc2c(O)c(O)ccc2c1 here
*A* inactive

*Q* # outcome recorded in this test, key = Cc1ccc(S(=O)(=O)N2CCC(=O)c3cc(Br)ccc32)cc1
*A* inactive

*Q* Field: outcome | Entry: CCOC(OCC)[C@H](N)[C@@H](O)[C@@H](O)[C@H]1COC(C)(C)O1
*A* inactive

*Q* What did the test return for COc1ccccc1N1C(=O)/C(=C\c2ccccc2)SC1c1cc(OC)c(OC)c(OC)c1 (stereo not given) ?
*A* inactive

*Q* Can you look up the reported call for COc1ccc2nc3cc(Cl)ccc3c(NCCCN(CCCl)CCCl)c2c1 for me?
*A* active

*Q* For this compound, state the assay outcome: CCCNc1ncnc2c1cnn2C
*A* inactive

*Q* What was the test verdict on CC(C)C1CNC(=O)C2(/C=N/C(C(C)C)CNC(=O)C3(/C=N/1)CCCO3)CCCO2 (stereo not given) ?
*A* inactive

*Q* For CCC1(O)CC2CC(=O)OC2C1O (stereo not given) , which call appears in the assay record?
*A* inactive

*Q* Call for entry CC1OC(c2ccc3c(OCc4ccccc4)cccc3c2O)CC(OCc2ccccc2)[C@H]1OCc1ccccc1 (stereo not given in full) :
*A* inactive

*Q* I'd appreciate the recorded outcome for CC1(C)S[C@H](CN)N[C@H]1C(=O)OC(c1ccccc1)c1ccccc1 from this test.
*A* inactive

*Q* Please indicate how the test categorized C/C(=C\c1ccccc1)C(=O)NCc1ccc(C(=O)NCCC(C)C)cc1 .
*A* inactive

*Q* What classification did O=S(=O)(O)c1ccc(/N=N/c2ccc(/N=N/c3c(O)ccc4ccccc34)c(S(=O)(=O)O)c2)cc1 end up with in this test?
*A* inactive

*Q* So what was the verdict on Cc1nc(-c2cccnc2)sc1C(=O)/C=C/c1ccc(Cl)cc1Cl in this test?
*A* inactive
